The reported numbers originate from patent US5340823A.

Assay: Acute toxicity and therapeutic ratio on mice
Format: in vivo
Settings: mouse, in vivo, po; mice, p.o.; LD50 to tremor ED50; read-out: Therapeutic ratio LD50/ED50 p.o.

>  <Molecule>
CCc1ccc(C(=O)C(C)CN2CCCCC2)cc1 (stereo not drawn) [Eperisone, eperisone, reference compound]

>  <selectivity ratio>
2.5

$$$$
>  <Molecule>
Cc1ccc(C(=O)C(C)CN2CCCCC2)cc1 (stereo not drawn) [Tolperisone, tolperisone, reference compound]

>  <selectivity ratio>
1.8

$$$$
>  <Molecule>
C[Si](C)(Cc1ccc(F)cc1)CN1CCCCC1.Cl [Example 2, hydrochloride]

>  <selectivity ratio>
8.3

$$$$
